SYSTEM_TESTED: c-Src SH2;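 also: peptide library displayed on the E. coli surface as eCPX fusions, selected cells deep-sequenced, score is each peptide's frequency after selection divided by its frequency in the input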
EXPERIMENT: SH2 binding enrichment of the phosphorylated peptide, bacterial display (enrichment ratio); higher = better substrate or ligand; peptides without Tyr show the background
Recorded SH2 binding enrichment, one value per entry.
Give the figure only, with no unit attached.

# RECORD_SEQUENCE, PROPERTY_MEASURED, OBSERVED_MEASUREMENT
rows = [
    ("AIIEEYLHLSD [EIF4G1_Y1253_N1257S]", "SH2 binding enrichment", 0.561),
]

Query PYADPYYDYEI [ZC3H18_Y371] yields SH2 binding enrichment of 1.94

Entry RFGKVYKAHLF [ROR2_Y488_G490A] — recorded SH2 binding enrichment = 0.613

Field SH2 binding enrichment (entry KWTVDYLSQVG [TYW5_Y48] ) reads 0.549

====

System: c-Abl (mouse)
EXPERIMENT: phosphorylation enrichment, bacterial display (enrichment ratio); higher = better substrate or ligand; peptides without Tyr show the background
Param threshold (0.6) applies to phosphorylation enrichment; output label 1 when value >= threshold, label 0 when value < threshold.

Previously resolved entries follow.
# RECORD_SEQUENCE, CATEGORY_LABEL
rows = [
    ("FRRITYFNWRH [PDE6B_Y556_H557Y_YF]", "label 0"),
    ("QRVLLYVQRET [GRHL3_Y518_R520Q]", "label 1"),
    ("FPPISYLNAIS [MVD_Y276]", "label 1"),
    ("RFLERYIYNRQ [HLA-DPB1_Y57_E62Q]", "label 1"),
    ("FGAHNHHPLPV [OAT_Y55_Y55H_YF]", "label 0"),
    ("EYFDGYWGYSV [ITGA2B_Y265]", "label 1"),
]

[Q] Evaluate RSSNTYTLTDV [ALCAM_Y298] : phosphorylation enrichment at minimum 0.6?
[A] label 1

[Q] Reported phosphorylation enrichment at or above 0.6? FMKEPYIQSRF [HIPK4_Y175_V171M_YF]
[A] label 0

[Q] Given FPPDGYSRHFE [CTNND1_Y213_YF] , state whether its phosphorylation enrichment is at least 0.6.
[A] label 0

[Q] Please tell me: is the sequence ASFPLYEPAKM [MKI67_Y340] at or over 0.6 in terms of phosphorylation enrichment?
[A] label 1

[Q] Dear colleague, could you confirm whether RLPSGYGLAYR [DLK1_Y262] has phosphorylation enrichment at or above 0.6?
[A] label 0

====

phosphorylation enrichment: recorded values
SYSTEM_TESTED: FGFR1 (UniProt P11362)
Sequence (P11362 whole entry, looked up): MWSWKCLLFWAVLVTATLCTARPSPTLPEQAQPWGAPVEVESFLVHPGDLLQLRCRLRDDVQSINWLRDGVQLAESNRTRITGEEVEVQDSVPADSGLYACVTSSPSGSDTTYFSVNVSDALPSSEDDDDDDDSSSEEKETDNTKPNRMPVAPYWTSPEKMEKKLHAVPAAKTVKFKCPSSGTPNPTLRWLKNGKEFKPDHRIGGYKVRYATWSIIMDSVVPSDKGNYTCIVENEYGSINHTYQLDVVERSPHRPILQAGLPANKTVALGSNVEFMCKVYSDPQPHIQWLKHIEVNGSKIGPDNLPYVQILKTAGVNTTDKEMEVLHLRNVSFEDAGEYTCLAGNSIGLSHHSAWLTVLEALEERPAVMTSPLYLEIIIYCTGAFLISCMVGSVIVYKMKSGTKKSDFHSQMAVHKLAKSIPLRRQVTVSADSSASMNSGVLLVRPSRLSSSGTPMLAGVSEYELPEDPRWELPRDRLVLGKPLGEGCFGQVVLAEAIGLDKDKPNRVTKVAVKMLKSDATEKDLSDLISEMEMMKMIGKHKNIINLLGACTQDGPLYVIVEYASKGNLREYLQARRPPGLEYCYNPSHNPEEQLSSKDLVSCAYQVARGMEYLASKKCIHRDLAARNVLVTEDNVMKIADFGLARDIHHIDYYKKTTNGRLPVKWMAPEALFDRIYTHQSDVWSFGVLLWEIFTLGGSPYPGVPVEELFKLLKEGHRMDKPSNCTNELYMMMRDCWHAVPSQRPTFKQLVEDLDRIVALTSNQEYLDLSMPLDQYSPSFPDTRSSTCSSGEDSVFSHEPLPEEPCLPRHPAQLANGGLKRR
EXPERIMENT: phosphorylation enrichment, bacterial display (enrichment ratio); higher = better substrate or ligand; peptides without Tyr show the background
// keep it numeric: no unit symbol after the value

Known results for sequences:
# RECORD_SEQUENCE, phosphorylation enrichment
data = [
    ("SVSNNYIQTLG [CTNND1_Y174]", 0.476),
    ("ILILKYPIEHG [ACTA1_Y71_T68I]", 0.525),
    ("ISRVLYPNDNF [PYGM_Y281]", 0.448),
    ("QPSPSYDSSGG [TCF12_Y70_R74G]", 0.611),
]

Memo: RVGVDYEGRGC [PLOD1_Y675_G678R] , reported phosphorylation enrichment: 0.617

In plain terms, DSIRDYEDGTE [CLNS1A_Y214_M218T] has a documented phosphorylation enrichment of 0.511

GET /value?item= NVSILYTASQA [CTNNA1_Y222_P219S] &field=phosphorylation enrichment returns 0.434

RGVTRYIFNRE [HLA-DQB1_Y62_Y58G_YF] yielded phosphorylation enrichment of 0.757

According to the records, this sequence PSPMPYACCQM [FOXL2_Y215_S217C] displays phosphorylation enrichment of 0.494

# sequence LSPNMYNSKFW [TARSL2_Y457_L461F] ; its phosphorylation enrichment = 1.24
